These entries and their values trace back to ChEMBL document CHEMBL4130437.

Would you mind telling me the reported MIC of each entry?
Test system: Escherichia coli
assay.procedure: Antibacterial activity against ESBL-producing Escherichia coli ATCC 35218 after 16 hrs by broth microdilution method
Type: functional
experimental.parameters: ATCC 35218, 16 h
Give bare numbers, in µg/mL.

Some compounds with known MIC results, for comparison:
CCC[C@H](O)[C@H](O)C[C@H]1OCc2cccc(OC)c21 = 8
C=C1[C@H]2C(=O)[C@]3(C)C=C4C(=O)OC[C@]14[C@@]1(CC[C@H]4C(C)(C)C(=O)C=C[C@]4(C)[C@H]21)C3 = 32
CC1(C)C(=O)C=C[C@@]2(C)[C@H]1CC[C@@]13C[C@@]4(C)C=C5C(=O)OC[C@]51[C@@]1(CO1)[C@@H](C4=O)[C@@H]23 = 32
C=C1[C@H]2C(=O)[C@]3(C)C=C4C(=O)OC[C@]14[C@@]1(CC[C@H]4C(C)(C)C(=O)C=C[C@]4(C)[C@]21O)C3 = 64
COc1cccc(/C=C/[C@@H](O)[C@@H](O)[C@H]2O[C@@H]2C)c1CO = 32
CCC[C@H](O)[C@H](O)C[C@H]1OCc2c(OC)cccc21 = 4

Hey, can you go through the list below and give me MIC for every item?
1. C=C1[C@H]2C(=O)[C@@]3(C)C[C@]4(CC[C@H]5C(C)(C)C(=O)C=C[C@]5(C)[C@H]24)[C@@]12COC(=O)[C@@H]2[C@H]3O
2. NCC[C@H](O)C(=O)N[C@@H]1C[C@H](N)[C@@H](O[C@H]2O[C@H](CN)[C@@H](O)[C@H](O)[C@H]2O)[C@H](O)[C@H]1O[C@H]1O[C@H](CO)[C@@H](O)[C@H](N)[C@H]1O [AMIKACIN]

[2, 2]
